test: chemical genetic growth profiling, strain panel (AID 1159580);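 further: tested at 20 µM; growth read once vehicle control cultures reached saturation at 30 °C; 1 = growth at the plate median or of vehicle wells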; conditions: S. cerevisiae deletion strains, growth OD, locus YLR027C, strain aat2, active compounds read low
The campaign covered roughly 5,500 compounds. About 2,000 (36%) were called active. Another 18% or so got no clear call; they are omitted. This is one part of the list.
measure_name: normalized growth
Please give only the number in your answer, with no unit.

- molecule: "O=C(O)c1ccc2c(c1)OCO2"
  normalized growth: 1

Quick one: normalized growth of O=C(O)CCCCC1SCC2NC(=O)NC21 (stereo unspecified) ?
0.994

Next entry: `c1cc2c(cc1[C@H]1OC[C@H]3[C@@H]1CO[C@H]3c1ccc3c(c1)OCO3)OCO2`
0.931

----------
Parameter: normalized growth. Scope: all listed entries.
assay: chemical genetic growth profiling, strain panel (AID 1159580); conditions: S. cerevisiae deletion strains, growth OD, locus YMR307W, strain GAS1, active compounds read low
About 2,000 (36%) of roughly 5,500 compounds were called active. Not shown: some 18% with an inconclusive outcome. The list shows a part of the results.
Please give only the number in your answer, with no unit.

Quick one: normalized growth of `OC[C@H]1O[C@@H](n2cnc3cncnc32)[C@H](O)[C@@H]1O` ?
1

Next entry: `C[C@H](Cc1ccc2c(c1)OC(C(=O)O)(C(=O)O)O2)NC[C@H](O)c1cccc(Cl)c1`
1.02

Next entry: `COP(=S)(OC)Oc1ccc(SC)c(C)c1`
0.908

Next entry: `COc1cc(N=Cc2ccc3c(c2)OCO3)c(OC)cc1Cl`
1.05

Next entry: CC[C@@H]1[C@@H](O)N2C3C[C@H]1C1C(O)[C@]4(C[C@@H]12)c1ccccc1N(C)[C@@H]34 (stereo not given in full)
0.974

Next entry: `COC(=O)c1cc(OC)c(OC)cc1NS(=O)(=O)c1ccc(C)cc1`
0.959

Next entry: CC(=O)C1=C(O)C2C3c4c[nH]c5cccc(c45)CC3C(C)(C)N2C1=O (stereo not given)
1.08

Next entry: CC(=O)Oc1cc(C)c2c(c1C(OC(C)=O)OC(C)=O)Oc1c(c(C)c(OC(C)=O)c3c1C(OC(C)=O)OC3=O)OC2=O (stereo not given)
1.02

Next entry: COc1cc(C)c2c(c1C=O)Oc1c(c(C)c(O)c3c1C(O)OC3=O)OC2=O (stereo not given)
0.922

Next entry: `O=c1cccc2n1C[C@H]1CNCC2C1`
1.07

----------
experiment: chemical genetic growth profiling, strain panel (AID 1159580); settings: S. cerevisiae deletion strains, growth OD, locus YGR252W, strain gcn5
About 2,000 (36%) of roughly 5,500 compounds were called active. Not shown: some 18% with an inconclusive outcome. Rule as the data show it: active = normalized growth mostly below about 0.91 (no sharp cut-off); inconclusive = no clear call, values can overlap the other calls; inactive = mostly above about 0.92. Some of the results follow.
Field 'call' accepts active, inactive

- compound: "O=C1OCCN1/N=C\\c1ccc([N+](=O)[O-])o1"
  class_name: "inactive"

Just curious, what result did CC[C@@H](C(=O)O)[C@@H]1O[C@@H]([C@@H](C)[C@H](O)[C@H](C)C(=O)[C@H](CC)[C@H]2O[C@]3(C=C[C@@H](O)[C@]4(CC[C@@](C)(C5CC[C@](O)(CC)[C@H](C)O5)O4)O3)[C@H](C)C[C@@H]2C)[C@@H](C)C[C@H]1C (some centres not stated) get here?
active

Next entry: `C[C@](N)(Cc1ccc(O)c(O)c1)C(=O)O`
inactive

Next entry: `O=C1N=C(O)CN1/N=C\c1ccc(-c2ccc([N+](=O)[O-])cc2)o1`
inactive

Next entry: CCCCC(CC)CN=C(N)NC(N)=NCCCCCCN=C(N)NC(N)=NCC(CC)CCCC (configuration not stated)
active

Next entry: CC[C@@H](C(=O)[C@@H](C)[C@@H](O)[C@H](C)[C@@H]1O[C@@H]([C@@H](CC)C(=O)O)CC[C@@H]1C)[C@H]1OC2(C=C[C@@H](O)[C@]3(CC[C@@](C)([C@H]4CC[C@](O)(CC)[C@H](C)O4)O3)O2)[C@H](C)C[C@@H]1C (some centres not stated)
inactive

Next entry: CC1CC2C(C(O)CC3(C)C2CCC3(O)C(=O)COC(=O)CCC(=O)O)C2(C)C=CC(=O)C=C12 (configuration not stated)
inactive

----------
test: chemical genetic growth profiling, strain panel (AID 1159580); details: S. cerevisiae deletion strains, growth OD, locus YLR262C, strain YPT6, active compounds read low
Out of some 5,500 compounds screened, about 2,000 (36%) were called active. Roughly 18% stayed inconclusive and do not appear here. The list shows a part of the results.
Output satisfied for records whose normalized growth is lower than 0.9, not satisfied for records at or above 0.9.

- compound: "CCOC(=O)CCc1cc(N=Cc2cc(Cl)cc(Cl)c2O)c(O)c(N=Cc2cc(Cl)cc(Cl)c2O)c1"
  class_name: "satisfied"

# check: normalized growth < 0.9 for `CC(C)(C)c1nc(N)sc1Br`
not satisfied

Next entry: `COc1c(C(=O)O)ccc2c1CCC(C)(C)O2`
not satisfied

Next entry: `N/C(=N\OC(=O)c1ccno1)c1ccc(C(F)(F)F)cc1`
not satisfied

Next entry: C#C[C@]1(O)CCC2C3CCc4cc(O)ccc4C3CC[C@@]21C (some centres not stated)
satisfied

Next entry: `CC/C(=N/Oc1ccc(C(F)(F)F)cn1)c1ccc(-c2ccccc2F)cc1`
not satisfied

Next entry: `CN(Cc1cc(Br)cc(Br)c1N)C1CCCCC1`
not satisfied

----------
test: chemical genetic growth profiling, strain panel (AID 1159580);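 further: tested at 20 µM; growth read once vehicle control cultures reached saturation at 30 °C; 1 = growth at the plate median or of vehicle wells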; details: S. cerevisiae deletion strains, growth OD, locus YDR297W, strain sur2
In all, about 5,500 compounds went through this assay and about 2,000 (36%) were called active. Another 18% or so got no clear call; they are omitted. No stated cut-off is given here; in the data, active means normalized growth mostly below about 0.91 (no sharp cut-off); inconclusive means no clear call, values can overlap the other calls; inactive means mostly above about 0.92. This is one part of the list.
Field 'call' accepts y for active, n for inactive

- compound: "CCCCC(CC)CN=C(N)NC(N)=NCCCCCCN=C(N)NC(N)=NCC(CC)CCCC (stereo not given)"
  class_name: "y"

Just curious, what result did `NCc1ccc(S(N)(=O)=O)cc1` get here?
n

Next entry: CCCN(CCC)C(=O)C(CCC(=O)O)NC(=O)c1ccccc1 (stereo not given)
n

Next entry: CN(Cc1cnc2nc(N)nc(N)c2n1)c1ccc(C(=O)NC(CCC(=O)O)C(=O)O)cc1 (stereo not given)
n

----------
experiment: chemical genetic growth profiling, strain panel (AID 1159580);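 further: tested at 20 µM; growth read once vehicle control cultures reached saturation at 30 °C; 1 = growth at the plate median or of vehicle wells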; details: S. cerevisiae deletion strains, growth OD, locus YEL037C, strain rad23, active compounds read low
In all, about 5,500 compounds went through this assay and about 2,000 (36%) were called active. Not shown: some 18% with an inconclusive outcome. The list shows a part of the results.
Parameter: normalized growth. Scope: all listed entries.
Please give only the number in your answer, with no unit.

- compound: "Nc1nccs1"
  measure_name: "normalized growth"
  assay_value: 0.987
- compound: "CC1=C(/C=C/C(C)=C/C=C/C(C)=C\\C(=O)O)C(C)(C)CCC1"
  measure_name: "normalized growth"
  assay_value: 0.979
- compound: "CC1=C(/C=C/C(C)=C/C=C/C(C)=C/C=C/C=C(C)/C=C/C=C(C)/C=C/C2=C(C)CCCC2(C)C)C(C)(C)CCC1"
  measure_name: "normalized growth"
  assay_value: 0.999
- compound: "CC1=C(/C=C/C(C)=C/C=C/C(C)=C/C(=O)O)C(C)(C)CCC1"
  measure_name: "normalized growth"
  assay_value: 1
- compound: "O=c1cccc2n1C[C@H]1CNCC2C1"
  measure_name: "normalized growth"
  assay_value: 1.01
- compound: "Nc1ccc(S(=O)(=O)Nc2nccs2)cc1"
  measure_name: "normalized growth"
  assay_value: 1.01
- compound: "C[C@H](COc1ccccc1)N[C@H](C)[C@H](O)c1ccc(O)cc1"
  measure_name: "normalized growth"
  assay_value: 0.997
- compound: "CC1=C(/C=C/C(C)=C/C=C/C(C)=C/CO)C(C)(C)CCC1"
  measure_name: "normalized growth"
  assay_value: 1

Then there is this compound:
Quick one: normalized growth of CC[C@@]1(C2O[C@@H](C3O[C@@](O)(CC)[C@H](C)C[C@@H]3C)C[C@@H]2C)CC[C@H]([C@]2(C)CCC3(C[C@H](O)[C@@H](C)[C@@H]([C@H](C)[C@@H](OC)[C@H](C)C(=O)O)O3)O2)O1 (some centres undefined) ?
1.01

----------
test: chemical genetic growth profiling, strain panel (AID 1159580);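 further: tested at 20 µM; growth read once vehicle control cultures reached saturation at 30 °C; 1 = growth at the plate median or of vehicle wells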; details: S. cerevisiae deletion strains, growth OD, locus YFR028C, strain CDC14, active compounds read low
The campaign covered roughly 5,500 compounds. About 2,000 (36%) were called active. Roughly 18% stayed inconclusive and do not appear here. This is one part of the list.
measure_name: normalized growth

Worked examples, 4 compounds total:
- record_smiles: "O=C1/C(=C/c2c(F)cccc2Cl)Cc2ccccc21"
  assay_value: "0.96 (inactive)"
- record_smiles: "COc1cc(N=Cc2cc(Cl)cc(Cl)c2OS(=O)(=O)c2ccc(C)cc2)c(OC)cc1Cl"
  assay_value: "0.919 (inactive)"
- record_smiles: "COc1cc(C(=O)Oc2c(Cl)cc(Cl)cc2C=Nc2ccc([N+](=O)[O-])cc2C#N)cc(OC)c1OC"
  assay_value: "0.973 (inactive)"
- record_smiles: "CC(=O)C(Sc1nc2ccccc2s1)C(C)=O"
  assay_value: "0.922 (inactive)"

Then there is this compound:
Quick one: normalized growth of `COc1cc(C(=O)Oc2c(Cl)cc(Cl)cc2C=Nc2cccc(C(F)(F)F)c2)cc(OC)c1OC` ?
0.951 (inactive)
